test system: U251 CNS; experiment: NCI tumour cell line growth inhibition, 48 h
quantity: TGI

* Cc1ccc2sc3cc(=O)cc(C)c-3nc2c1 | > 100 µM
* CC(=O)Nc1ccc(-c2nnc(SCC(=O)Nc3ccccc3Cl)o2)cc1 | > 100 µM
* Cn1c2ccccc2c2c(=O)n(CCCC(=O)NCC(=O)OC(=NC3CCCCC3)NC3CCCCC3)c3c(-c4ccccc4)nnn3c21 | 38.3 µM
* CC(=O)NNC=N/C(C#N)=C(\N)C#N | > 100 µM

----------
test system: MDA-MB-435
Labels: active, inactive

* Nc1cc(N)c2nc(-c3ccccc3)c(Nc3ccc(F)cc3)nc2c1 | inactive
* COc1ccc(C2CC(=O)Nc3c2c(C)nn3-c2nc3ccccc3[nH]2)cc1 (centres undefined) | inactive
* O=C1N=C2c3c(sc4c3CCCC4)N=CN2C1N=Nc1ccc(Cl)cc1 (centres undefined) | inactive
* Cc1cccc2c3c(sc12)C(c1ccc(Cl)cc1)C(C#N)=C(/N=C/c1ccc(Cl)cc1)O3 (centres undefined) | active

----------
tested on: SK-MEL-5 melanoma; experiment: NCI tumour cell line growth inhibition, 48 h
quantity: TGI

* CCCCCCC(N)(CCCCCC)C(=O)Nn1c(C)ccc1C | > 100 µM
* N[C@@H]1C[C@H](N)c2c(Cl)sc(Cl)c21 | > 100 µM
* COc1ccc2c(c1)[nH]c(=O)c1c3cccnc3cn21 | 0.0992 µM
* CSC1=N/C(=C\c2cccs2)C(=O)N1CN1CCCCC1 | > 100 µM
* CCOC(=O)/C(C#N)=C(O)/C(=C/c1ccccc1Cl)NC(=O)c1ccccc1 | > 100 µM
* COc1ccc2c(c1)c(Cc1c(C)n(C)c3ccc(OC)cc13)c(C)n2C | > 100 µM
* Cn1c2ccccc2c2c(=O)n(CCCC(=O)NCC(=O)OC(=NC3CCCCC3)NC3CCCCC3)c3c(-c4ccccc4)nnn3c21 | 31.6 µM
* N#C/C(=C\c1cn(-c2ccccc2)c2ccccc12)C(=O)O | > 100 µM
* O=C(Oc1ccccc1)c1cc(O)c(O)c(O)c1 | 38.8 µM
* O=C1C(NCCc2cc(Br)c(O)c(Br)c2)=CC(=O)c2ncccc21 | 2.83 µM
* C/C(=N\NC(N)=S)c1ccc(/C(C)=N/NC(N)=S)cc1 | > 100 µM
* Nc1ncc2c(n1)-c1ccccc1OC2NC1CC1 (configuration not stated) | > 100 µM

----------
test system: KM20L2 colon; assay: NCI tumour cell line growth inhibition, 48 h
quantity: TGI (µM)

* Cc1ccccc1C(C#N)/C(=N/NC(=O)c1cc2ccccc2cc1O)C(=O)Nc1cccc(Cl)c1 (stereo not given) | 94.4
* CCCOc1ccc(/C=C/c2cc(OC)c(OC)c(OC)c2)cc1 | 0.406

----------
Overview of recorded TGI for various molecules
test system: ACHN renal; test: NCI tumour cell line growth inhibition, 48 h
quantity: TGI

* O=S(=O)(O)C(F)(F)C(F)(F)C(F)(F)C(F)(F)F | > 100 µM
* c1ccc(C2=NN(c3ccccc3)C3(S2)SC(c2ccccc2)(c2ccccc2)c2ccccc23)cc1 (stereo not drawn) | > 100 µM
* O=C(CNC(=O)c1cccc2ccccc12)Nc1ccccc1Oc1cccc(O)c1 | > 25 µM

----------
Overview of recorded TGI for various compounds
test system: NCI-H226 lung; experiment: NCI tumour cell line growth inhibition, 48 h
quantity: TGI (µM)

* COc1ccc2c(c1)[nH]c(=O)c1c3cccnc3cn21 | 18.6
* Cc1c(-c2ccccc2)c(-c2ccc(OCCN(C)C)cc2)n2ccccc12 | 30.9
* COc1ccc2oc(=N)c(C(N)=S)cc2c1 | 44.3
* CC(=O)OC1[C@H]2c3cc4c(cc3CN3CCC(C[C@@H]1OC(C)=O)C23)OCO4 (stereo partly drawn) | 59.9
* CN(C)c1cccc2[nH]c(-c3[nH]ncc3Nc3ccnc(N)n3)nc12 | 0.193
